Below, each of the binders is paired with its reported IL-2 secretion in T cell activation, Top (best-fit) value.
testedOn: T1, human TIGIT over-expressed on cells (human, UniProt Q495A1 22-244)
T1 sequence: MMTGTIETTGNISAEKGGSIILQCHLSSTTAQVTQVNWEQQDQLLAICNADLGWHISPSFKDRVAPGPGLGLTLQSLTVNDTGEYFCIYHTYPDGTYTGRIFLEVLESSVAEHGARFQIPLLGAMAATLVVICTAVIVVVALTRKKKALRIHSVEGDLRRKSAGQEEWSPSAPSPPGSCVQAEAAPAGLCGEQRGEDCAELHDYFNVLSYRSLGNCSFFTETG
protocolText: cell-based or functional assay
Just the number, please, no unit after it.

Please review the following examples before continuing.
binder: 104G12E12G2 (antibody, V domains shown, Mouse monoclonal antibody; also called mouse anti-human TIGIT monoclonal antibody 104G12E12G2) VH: EVQLQQSGPELVKPGASVKISCKASGYSFTGSYIHWVKQNHVKTLEWIGRINPHNGPTSYNQNFKGKASLTVDLSSSTAYMEVHSLTSEDSAVYYCVRYDGYYGGALDYWGQGTSVTVSS VL: DIQMTQSPSSLSASLGERVSLTCRASQEISGYLSWLQQKPDGTIKRLIYAASTLDSGVPKRFSGSRSGSDYSLTISSLESEDFADYYCLQYASYPYTFGGGTKLEIK
valueReported: 189

binder: 121C2F10B5 (antibody, V domains shown, Mouse monoclonal antibody; also called mouse anti-human TIGIT monoclonal antibody 121C2F10B5) VH: EVQLVESGGDLVKPGGSLKLSCAASGFTFSTYGMSWVRQTPDKRLEWVATISSGGSYTYYPDSVKGRFTISRDNAKNTLYLQMSSLKSEDTAMYYCARQVHYFYAMDYWGQGTSVTVSS VL: DIQMTQSPASLSVSVGETVTITCRASENIYSNLAWYQQKQGKSPQVLVYAATNLADGVPSRFSGSRSGTQYSLKINSLQSEDFGSYYCQHFWDNAYTFGGGTKLEIK
valueReported: 197

Task: Item 83G6H11C12 (antibody, V domains shown, Mouse monoclonal antibody; also called mouse anti-human TIGIT monoclonal antibody 83G6H11C12) VH: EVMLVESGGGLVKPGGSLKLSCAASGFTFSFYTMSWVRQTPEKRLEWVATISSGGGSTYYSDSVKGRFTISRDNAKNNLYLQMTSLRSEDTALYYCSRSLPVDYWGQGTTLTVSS VL: QIVLTQSPAIMSASLGERVTMTCTASSSVSSSYLHWYQQKPGSSPKLWIYSTSNLASGVPARFSGSGSGTSYSLTISSMEAEDAATYYCHLYHHSPYTFGGGTKLEIK has what recorded IL-2 secretion in T cell activation, Top (best-fit)?
Output: 171
